# Tested on: Bacillus subtilis
# METHOD_DESCRIPTION: Antibacterial activity against penicillin-susceptible Bacillus subtilis ATCC 9372 assessed as inhibition of bacterial growth measured after 20 hrs by two-fold microdilution assay
# Type: functional
Documented MIC across a set of compounds
Return type: number; implicit unit mg/L.

Answered cases to consult:
COMPOUND | RECORDED_RESULT
Cc1ccc2c[n+](C)c3ccc(-c4nc5ccccc5s4)cc3c2c1.[Cl-] | 1
Cc1cccc2c[n+](C)c3ccc(-c4ccc5ccn(Cc6ccccc6)c5c4)cc3c12.[Cl-] | 4

Supply MIC value. Item: `Cc1ccc2c[n+](C)c3ccc(-c4ccc5ccn(CC(C)C)c5c4)cc3c2c1.[Cl-]`
4

Check the records and state MIC for `Cc1cccc2c[n+](C)c3ccc(-c4ccc5ccn(CC(C)C)c5c4)cc3c12.[Cl-]`
4

Return reported MIC. Input compound: `Cc1cccc2c[n+](C)c3ccc(-c4nc5ccccc5s4)cc3c12.[Cl-]`
4

Name the recorded MIC of the compound listed here: `Cc1cccc2c[n+](C)c3ccc(-c4ccc5ccn(C)c5c4)cc3c12.[Cl-]`
1

State its MIC: CC(=O)NC[C@H]1CN(c2ccc(N3CCOCC3)c(F)c2)C(=O)O1 [LINEZOLID]
0.5

Data origin: ChEMBL document CHEMBL4828726
